# Test system: 786-0
# Test name: NCI tumour cell line growth inhibition, 48 h
Active and inactive are the calls of the source. No stated cut-off is given here; in the data, active = GI50 up to about 1.1 µM and inactive = higher. Where a SMILES comes first, the peptide text is derived from it. The star is where a group is joined. Cbz = O=C(OCc1ccccc1)*; OBn = c1ccc(CO*)cc1
Outcomes: active, inactive

>  <Molecule>
Oc1cc(O)cc(-c2nc3cc(F)ccc3s2)c1

>  <Label class>
inactive

$$$$
>  <Molecule>
COc1cc2c(/C=C3/C(=O)Nc4ccccc43)c(Cl)n(Cc3ccc(Cl)cc3)c2cc1C

>  <Label class>
active

$$$$
>  <Molecule>
COC(=O)c1cc(C#N)[nH]c1-c1ccc(Br)s1

>  <Label class>
inactive

$$$$
>  <Molecule>
CN(C)CCC(/C=C/c1ccccc1)=N\Nc1ccc(Cl)c(Cl)c1

>  <Label class>
inactive

$$$$
>  <Molecule>
COc1cccc(CC(C)NCC(O)c2ccc(O)c(O)c2)c1 (centres undefined)

>  <Label class>
inactive

$$$$
>  <Molecule>
CCON1CC(C(=O)OC)=C(O)C1=O

>  <Label class>
inactive

$$$$
>  <Molecule>
CNC(=O)C1(C#N)C(c2ccccc2)C(C#N)(C(=O)NC)C1c1ccccc1 (centres undefined)

>  <Label class>
inactive

$$$$
>  <Molecule>
CCOC(=O)c1c(CN2CCCC2)n(-c2ccccc2)c2cc(Br)c(OC)cc12

>  <Label class>
inactive

$$$$
>  <Molecule>
Cc1cc(C)nc(NS(=O)(=O)c2ccc(Nc3c4ccccc4nc4c(C(=O)NCCN(C)C)cccc34)cc2)n1

>  <Label class>
inactive

$$$$
>  <Molecule>
Brc1ccccc1/C=N\C12CC3CC(CC(C3)C1)C2

>  <Label class>
inactive

$$$$
>  <Molecule>
O=C(Cc1ccccc1)N/N=C(/c1nc2ccc([N+](=O)[O-])cc2nc1O)C(O)c1ccc(C(O)/C(=N/NC(=O)Cc2ccccc2)c2nc3ccc([N+](=O)[O-])cc3nc2O)cc1 (centres undefined)

>  <Label class>
inactive

$$$$
>  <Molecule>
O=C(O)Cc1ccc([N+](=O)[O-])cc1[N+](=O)[O-]

>  <Label class>
inactive

$$$$
>  <Molecule>
CCCCCC[C@@H]1CCC2C(CO)[C@@H](O)CC[C@@H]2C1 (some centres undefined)

>  <Label class>
inactive

$$$$
>  <Molecule>
O=C(N/C(=C\c1ccc(/C=C(\NC(=O)c2ccccc2)c2nc3ccccc3[nH]2)cc1)c1nc2ccccc2[nH]1)c1ccccc1

>  <Label class>
inactive

$$$$
>  <Molecule>
S=C(/N=c1/sc(Nc2ccccc2)nc2sc3c(c12)CCCC3)Nc1ccccc1

>  <Label class>
inactive

$$$$
>  <Molecule>
Fc1ccc(C2SCc3nc4ccccc4n32)cc1Cl (centres undefined)

>  <Label class>
inactive

$$$$
>  <Molecule>
CCO/C=N\c1c(C#N)c(-c2ccc(Cl)cc2)cn1-c1ccc(C)cc1

>  <Label class>
inactive

$$$$
>  <Molecule>
O=c1c2cccnc2ncn1CCCN1CCOCC1

>  <Label class>
inactive

$$$$
>  <Molecule>
O=C1C=C(Nc2cccnc2)c2ccccc2C1=O

>  <Label class>
inactive

$$$$
>  <Molecule>
C=C(C(=C)P(=S)(C(C)C)C(C)C)P(=S)(C(C)C)C(C)C

>  <Label class>
inactive

$$$$
>  <Molecule>
CN(C)CCNc1nc2ccccc2c2c1C(=O)c1ccccc1-2

>  <Label class>
active

$$$$
>  <Molecule>
CC(=O)c1ccc(-c2ccc(C(C)=O)s2)s1

>  <Label class>
inactive

$$$$
>  <Molecule>
COC(=O)C(Cc1ccc(O)cc1)NC(=O)C(CC(=O)OCc1ccccc1)NC(=O)OCc1ccccc1 (centres undefined) (Cbz-Asp(OBn)-Tyr-OMe; configuration not given here)

>  <Label class>
inactive

$$$$
>  <Molecule>
O=[N+]([O-])c1ccc2oc(=N/c3ccccc3)/c(=N\c3ccccc3)[nH]c2c1

>  <Label class>
inactive

$$$$
>  <Molecule>
C/C(=N/NC(=S)N1CC2CCC(CC2)C1)c1cnccn1

>  <Label class>
active

$$$$
>  <Molecule>
O=c1c(C(c2ccc(OCc3ccccc3)cc2)c2c(O)oc3ccccc3c2=O)c(O)oc2ccccc12

>  <Label class>
inactive

$$$$
>  <Molecule>
CN(C)c1ccc(/C=c2/c3ccccc3n3c2cc(NC(=O)NCCC[N+](C)(C)C)[n+]3C)cc1

>  <Label class>
inactive

$$$$
>  <Molecule>
Cc1c(Cl)cccc1NC(=O)/C(Cl)=C(\Cl)C(=O)O

>  <Label class>
inactive

$$$$
>  <Molecule>
Nc1nc2c(c(=O)[n-]1)[n+](CCO)cn2C1OC(CO)C(O)C1O (centres undefined)

>  <Label class>
inactive

$$$$

###

# System: HOP-92
# Test name: NCI tumour cell line growth inhibition, 48 h
Active and inactive are the calls of the source. Cut-off read from the data, not from the text of the source: active = GI50 up to about 1.1 µM and inactive = higher.
Labels: class 1 for active, class 0 for inactive

>  <Compound>
COc1cc2c(cc1OC)CCc1cc(OC)c(OC)cc1CC2

>  <Tested on>
HOP-92

>  <Label class>
class 0

$$$$
>  <Compound>
O=C1/C(=C2\Sc3c(ccc(Cl)c3Cl)C2=O)Sc2c1ccc(Cl)c2Cl

>  <Tested on>
HOP-92

>  <Label class>
class 0

$$$$
>  <Compound>
C=CCn1c(-c2ccc(/N=N/Nc3ccc(-c4n[nH]c(=S)n4CC=C)cc3)cc2)n[nH]c1=S

>  <Tested on>
HOP-92

>  <Label class>
class 0

$$$$
>  <Compound>
C=C1CC(Cn2cc(Br)c(=O)[nH]c2=O)(c2ccc(Br)cc2)OC1=O (stereo unspecified)

>  <Tested on>
HOP-92

>  <Label class>
class 0

$$$$
>  <Compound>
CCN(CCCl)c1cc(CN(C)C)cc(NC(=O)c2cc(C(=O)Nc3cc(CN(C)C)cc(N(CC)CCCl)c3)n(C)n2)c1

>  <Tested on>
HOP-92

>  <Label class>
class 1

$$$$
>  <Compound>
CCOC(=O)c1c(CN2CCCC2)n(-c2ccccc2)c2cc(Br)c(OC)cc12

>  <Tested on>
HOP-92

>  <Label class>
class 0

$$$$
>  <Compound>
COc1cc(-c2n[nH]cc2CCCC(=O)Nc2ccccc2[N+](=O)[O-])ccc1O

>  <Tested on>
HOP-92

>  <Label class>
class 0

$$$$
>  <Compound>
C(=N\Nc1ccc(-c2nc3ccccc3[nH]2)cc1)/c1c(-c2ccc(Cc3ccccc3)cc2)[nH]c2ccccc12

>  <Tested on>
HOP-92

>  <Label class>
class 0

$$$$
>  <Compound>
COC(=O)C1C(C(=O)OC)C2(OC)c3ccccc3-c3ccccc3C12 (stereo unspecified)

>  <Tested on>
HOP-92

>  <Label class>
class 0

$$$$
>  <Compound>
COc1cc2c(/C=C3/C(=O)Nc4ccccc43)c(Cl)n(Cc3ccc(Cl)cc3)c2cc1C

>  <Tested on>
HOP-92

>  <Label class>
class 0

$$$$
>  <Compound>
N=C(N)SCCSC(=N)N

>  <Tested on>
HOP-92

>  <Label class>
class 0

$$$$
>  <Compound>
CC(C)(C)c1ccc2c(c1)OP1(Oc3c(Cl)cc(Cl)c4cccnc34)(O2)Oc2ccc(C(C)(C)C)cc2O1

>  <Tested on>
HOP-92

>  <Label class>
class 0

$$$$
>  <Compound>
COC(=O)C1C(O)C(C)C(O)C(C)(O)C=C(C)C2=C3C(=C(C)C(=O)c4c(O)c(c(C)c(OC(C)=O)c43)NC(=O)C(C)=C/C=C\C(C)(O)C(O)C(C)C1O)OCO2 (stereo unspecified)

>  <Tested on>
HOP-92

>  <Label class>
class 0

$$$$
>  <Compound>
Cc1ccc(S(=O)(=O)NNC(=S)Nc2cccc3ccccc23)cc1

>  <Tested on>
HOP-92

>  <Label class>
class 0

$$$$
>  <Compound>
COc1ccc(C(=O)/C=C/c2ccc(O)c(O)c2)c(OC)c1

>  <Tested on>
HOP-92

>  <Label class>
class 0

$$$$
>  <Compound>
CC1=NN(c2nc(N)nc(CO)n2)C(C)(C)C1

>  <Tested on>
HOP-92

>  <Label class>
class 0

$$$$
>  <Compound>
Oc1ccc2ccccc2c1NCn1nc(CCCCCCCCc2nn(CNc3c(O)ccc4ccccc34)c(=S)o2)oc1=S

>  <Tested on>
HOP-92

>  <Label class>
class 0

$$$$
>  <Compound>
O=c1cc(NNc2ccccc2)[nH]c(=S)[nH]1

>  <Tested on>
HOP-92

>  <Label class>
class 0

$$$$
>  <Compound>
CC(C)CC(CNC(Cc1ccc(Cl)cc1)C(N)=O)NC(=O)C(Cc1c[nH]cn1)NC(=O)CNC(=O)C(NC(=O)C(C)NC(=O)C(Cc1c[nH]c2ccccc12)NC(=O)C(CCC(=O)O)NC(=O)C(N)Cc1ccccc1)C(C)C (stereo unspecified)

>  <Tested on>
HOP-92

>  <Label class>
class 1

$$$$
>  <Compound>
CC1CC[C@@]2(OC1)OC1C[C@H]3[C@@H]4CC[C@H]5CC(OC6OC(CO)C(O)C(OC7OC(CO)C(OC8OC(CO)C(O)C(OC9OC(CO)C(O)C(O)C9O)C8OC8OC(CO)C(O)C(O)C8O)C(O)C7O)C6O)[C@H](O)CC5(C)[C@H]4CCC3(C)C1[C@@H]2C (stereo partly specified)

>  <Tested on>
HOP-92

>  <Label class>
class 0

$$$$
>  <Compound>
CN(C)CCNc1nc2ccccc2c2c1C(=O)c1ccccc1-2

>  <Tested on>
HOP-92

>  <Label class>
class 1

$$$$
>  <Compound>
CN(C(=O)Cc1cccc(N=C=S)c1)[C@H]1CCCC[C@@H]1N1CCCC1

>  <Tested on>
HOP-92

>  <Label class>
class 0

$$$$
>  <Compound>
NC1=CC(C(=O)c2ccncc2)c2nc3ccccc3nc21 (stereo unspecified)

>  <Tested on>
HOP-92

>  <Label class>
class 0

$$$$
>  <Compound>
CN(C)c1ccc(/C=c2/c3ccccc3n3c2cc(NC(=O)NCCC[N+](C)(C)C)[n+]3C)cc1

>  <Tested on>
HOP-92

>  <Label class>
class 0

$$$$
>  <Compound>
Cc1ccc([N+](=O)[O-])cc1NC(=O)/C(CC(=O)c1sc(C(N)=S)nc1C)=N\N

>  <Tested on>
HOP-92

>  <Label class>
class 0

$$$$
>  <Compound>
COc1cc(C(c2c(O)c3ccccc3oc2=O)c2c(O)c3ccccc3oc2=O)cc(Br)c1O

>  <Tested on>
HOP-92

>  <Label class>
class 0

$$$$
